Please provide measured pIC50 for the entries that follow.
System: HOP-62 multicell spheroids with HUVEC/MSC, viability
METHOD DESCRIPTION: Anticancer human tumor HOP-62 cell line growth inhibition [KRAS2];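 further: viability read after a week of compound exposure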
CONDITION LABEL: curve of first compound; second compound 1 µM
By convention, pIC50 is the negative base-10 log of a molar concentration.

Query block: Recorded pIC50 for CC1COCCN1c1cc(-c2ccnn2C)c2ccnc(-c3ccn[nH]3)c2n1 (stereo not drawn) + CC1OCC2(CCN(c3cnc(Sc4ccnc(N)c4Cl)c(N)n3)CC2)C1N , please?
Result block: 7.66

Query block: CC(C)n1nc(-c2ccc3oc(N)nc3c2)c2c(N)ncnc21 + CNCc1ccccc1-c1csc(C(C)Nc2nc(C)nc3cc(OC)c(OC)cc23)c1 ?
Result block: 8.75
